This collection of values is drawn from ChEMBL document CHEMBL1201862.

Tested on: RPMI-8226
Assay: NCI tumour cell line growth inhibition, 48 h
Activity calls are given as the source filed them. Cut-off read from the data, not from the text of the source: active = GI50 up to about 1.1 µM and inactive = higher.
Please reply with one of these outcomes: T for active, F for inactive

Q: Record request — test call for CN(C)c1ccc(/C=c2/c3ccccc3n3c2cc(/C=C/c2ccccc2)[n+]3C)cc1
A: T

Q: Record request — test call for CCOC(=O)c1[nH]c2nc(SC)nc(NC)c2c1N
A: F

Q: Record request — test call for CCOC(=O)/C(C)=C(/O)C(=O)OCC
A: F

Q: Record request — test call for CC(C)(Sc1cc(C(C)(C)C)c(O)c(C(C)(C)C)c1)Sc1cc(C(C)(C)C)c(O)c(C(C)(C)C)c1
A: F

Q: Record request — test call for CC(C)C1=CC23CCC4C(C)(C(=O)O)CCCC4(C)C2CC1C1C(=O)N(c2cccc(N4C(=O)C5C6CC7C8(C)CCCC(C)(C(=O)O)C8CCC7(C=C6C(C)C)C5C4=O)c2)C(=O)C13 (stereo not given)
A: F

Q: Record request — test call for O=C(CC1(O)C(=O)Nc2ccccc21)c1ccncc1 (stereo not given)
A: F

Q: Record request — test call for C=C(C)CCC1C=[N+]([O-])OC(C)(C)C1(C)C (stereo not given)
A: F

Q: Record request — test call for CCN(CC)CCn1nc(N)c2nc3cc(Cl)ccc3nc21
A: F

Q: Record request — test call for O=c1c(O)c(-c2cc(O)c(O)c(O)c2)oc2cc(O)cc(O)c12
A: F

Q: Record request — test call for CCOC(=O)c1cc(-n2nnc3ccccc32)cn1C
A: F

Q: Record request — test call for C=C1CC(C)(c2cccc(Nc3nc4ccccc4c4occc34)c2)OC1=O (stereo not given)
A: F

Q: Record request — test call for C1=C[C@]2(CCC13OCCO3)COc1ccccc12
A: F

Q: Record request — test call for CCOC(=O)c1c(OCC)[nH]c(=O)c(C(c2ccc(F)cc2)c2c(O)c(C(=O)OCC)c(OCC)[nH]c2=O)c1O
A: F

Q: Record request — test call for COc1cccc(/N=N/C(=N\NC(=O)c2ccc(C)cc2)c2ccc(N(CCC#N)CCC#N)cc2C)c1
A: F

Q: Record request — test call for CC(=O)C(C(=O)c1ccc(C)cc1)[C@@H]1OC(C)(C)O[C@@H]1[C@H]1COC(C)(C)O1 (stereo not given in full)
A: F

Q: Record request — test call for Cc1ccc(C2=CC(=O)/C(=C\C(=O)c3ccc(Br)cc3)O2)c(C)c1
A: F

Q: Record request — test call for COc1cc(OC)c2c(O)c3c(cc2c1)CC(C)(C)CC3=O
A: F

Q: Record request — test call for Cc1ccc(C2COc3cc(O)c(O)cc3C2)cc1 (stereo not given)
A: F

Q: Record request — test call for COP(=O)(OC)C(NC(=O)C(F)(F)F)(c1ccccc1)C(F)(F)F (stereo not given)
A: F

Q: Record request — test call for COc1cc(C(c2cc3c(cc2O)OCO3)N2CCCCC2)cc(OC)c1OC (stereo not given)
A: F
